assay: Selectivity index, ratio of CC50 for mock-infected human PM1 cells expressing CCR5 to IC50 for R5 tropic HIV1 YTA infected in human TZM-bl cells; assay type: functional
Label true when Ratio CC50/IC50 is strictly below 10; at or above that, label false.

IN: Answer whether the molecule O=C(Nc1ccc(Cl)cc1)C(=O)NC1CC2(CCCCC2)NC2(CCCCC2)C1 (stereo not given) has Ratio CC50/IC50 strictly less than 10
OUT: false

IN: Answer whether the molecule O=C(Nc1ccc(Cl)cc1)C(=O)NC1CCNCC1 has Ratio CC50/IC50 strictly less than 10
OUT: true

IN: Answer whether the molecule Cc1ccc(NC(=O)C(=O)NC2CC(C)(C)NC(C)(C)C2)cc1 has Ratio CC50/IC50 strictly less than 10
OUT: false

IN: Answer whether the molecule O=C(NCCc1ccccn1)C(=O)Nc1ccc(Cl)cc1 has Ratio CC50/IC50 strictly less than 10
OUT: false

IN: Answer whether the molecule O=C(Nc1ccc(Cl)cc1)C(=O)NC1CCN(C(=O)Nc2ccccc2)CC1 has Ratio CC50/IC50 strictly less than 10
OUT: true

IN: Answer whether the molecule CC1(C)CC(NC(=O)C(=O)Nc2ccc(Cl)cc2)CC(C)(C)N1 has Ratio CC50/IC50 strictly less than 10
OUT: false

IN: Answer whether the molecule NC(=S)N1CCC(NC(=O)C(=O)Nc2ccc(Cl)cc2)CC1 has Ratio CC50/IC50 strictly less than 10
OUT: true

IN: Answer whether the molecule O=C(Nc1ccc(F)cc1)C(=O)Nc1ccc(Cl)cc1 has Ratio CC50/IC50 strictly less than 10
OUT: false

IN: Answer whether the molecule N=C(N)N1CCC(NC(=O)C(=O)Nc2ccc(Cl)cc2)CC1.O=C(O)C(F)(F)F has Ratio CC50/IC50 strictly less than 10
OUT: false

IN: Answer whether the molecule NC(=O)N1CCC(NC(=O)C(=O)Nc2ccc(Cl)cc2)CC1 has Ratio CC50/IC50 strictly less than 10
OUT: false
